Tested on: RAW264.7
Measurement Description: Cytotoxicity against mouse RAW264.7 cells assessed as cell destruction at 5 uM incubated for 48 hrs by MTT assay
Type: toxicity, cell-based
Settings: raw264.7, 48 h
Measurement Name: Activity

Asked: For the compound CC(C)(OCC(F)(F)F)C([Se]c1ccccc1)C(=O)Nc1ccnc(F)c1 (stereo unspecified) , what Activity is on record?
Given back: Non-Toxic

Asked: What about Cc1ccccc1[Se]C(C(=O)Nc1ccccc1)C(C)(C)OCC(F)(F)F (stereo unspecified) ?
Given back: Non-Toxic

Asked: What about CC(C)(OCC(F)(F)F)C([Se]c1ccccc1)C(=O)Nc1cnc2ccccc2c1 (stereo unspecified) ?
Given back: Non-Toxic

Asked: What about COc1ccc([Se]C(C(=O)Nc2ccccc2)C(C)(C)OCC(F)(F)F)cc1 (stereo unspecified) ?
Given back: Non-Toxic

Asked: What about CC(C)(OCC(F)(F)F)C([Se]c1ccc2c(c1)OCO2)C(=O)Nc1ccccc1 (stereo unspecified) ?
Given back: Non-Toxic

***
Asked: For the compound Cc1cc(NC(=O)C([Se]c2ccccc2)C(C)(C)OCC(F)(F)F)ccn1 (stereo unspecified) , what Activity is on record?
Given back: Non-Toxic

Asked: What about COc1ncccc1[Se]C(C(=O)Nc1ccccc1)C(C)(C)OCC(F)(F)F (stereo unspecified) ?
Given back: Non-Toxic

Asked: What about CC(C)(OCC(F)(F)F)C([Se]c1ccccc1)C(=O)NC1CCCCC1 (stereo unspecified) ?
Given back: Non-Toxic

====

System: BMMC
Measurement Description: Anti-osteoclastogenesis activity in M-CSF/RANKL-induced C57BL/6 mouse BMMC cells assessed as inhibition of osteoclasts formation incubated for 6 days with media replacement for every 2 days by TRAP-staining based light microscopic analysis
Format: functional, cell-based
Settings: C57BL/6, BMMC
Measurement Name: IC50
Number plus unit, in that order.

Asked: For the compound CC(C)(OCC(F)(F)F)C([Se]c1ccccc1)C(=O)Nc1ccncc1 (stereo unspecified) , what IC50 is on record?
Given back: 2410 nM

These entries and their values trace back to ChEMBL document CHEMBL5543155.
